Measured values drawn from the M2OR odorant receptor database for this set.

Target: OR51A4 (Homo sapiens)
Sequence (whole entry): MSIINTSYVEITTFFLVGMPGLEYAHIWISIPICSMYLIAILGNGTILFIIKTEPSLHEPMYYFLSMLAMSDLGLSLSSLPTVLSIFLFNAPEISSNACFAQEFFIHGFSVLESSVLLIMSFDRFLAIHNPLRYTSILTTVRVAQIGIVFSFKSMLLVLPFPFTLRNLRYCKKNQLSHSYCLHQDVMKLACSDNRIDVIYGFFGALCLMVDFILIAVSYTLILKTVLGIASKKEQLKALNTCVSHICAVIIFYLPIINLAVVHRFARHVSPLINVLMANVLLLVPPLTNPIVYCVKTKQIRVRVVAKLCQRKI
Conditions: stereoisomer not certain
result-type: odorant receptor agonist call

> print(dat)
                                    molecule    result
 1  CC1CCCCCCCCCCCCC(=O)C1 (stereo not given)  inactive
 2     CCC1OC(=O)C(O)=C1C (stereo not given)  inactive
 3    CC1=C(O)C(=O)C(C)O1 (stereo not given)  inactive
 4               CC(CO)CS (stereo not given)  inactive
 5       CCCC(S)CCOC(C)=O (stereo not given)  inactive
 6   CCCCCC(=O)C(C)C(C)=O (stereo not given)  inactive
 7         CCCCC(S)C(C)CO (stereo not given)  inactive
 8                            CCCCCCC=CCCC=O  inactive
 9        CCCCCC(S)C(C)CO (stereo not given)  inactive
10     CCC1OC(C)=C(O)C1=O (stereo not given)  inactive

###

molecular target: UniProt Q8VG27; settings: stereoisomer not certain
Sequence (Q8VG27 as listed by the source): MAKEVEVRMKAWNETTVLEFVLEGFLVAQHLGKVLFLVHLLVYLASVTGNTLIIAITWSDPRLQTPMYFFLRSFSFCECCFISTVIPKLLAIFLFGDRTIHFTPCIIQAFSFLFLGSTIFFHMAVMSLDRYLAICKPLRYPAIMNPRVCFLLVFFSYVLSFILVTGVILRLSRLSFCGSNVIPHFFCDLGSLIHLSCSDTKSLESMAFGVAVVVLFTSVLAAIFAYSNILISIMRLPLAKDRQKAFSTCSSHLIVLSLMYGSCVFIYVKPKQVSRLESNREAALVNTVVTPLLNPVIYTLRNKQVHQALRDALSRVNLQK
Labels: active, inactive

> print(dat)
                        smi  discrete.label
 1               CCCCC(C)=O        inactive
 2             CCCCCCC=CC=O        inactive
 3              OCCCCCCCCCO        inactive
 4                 CCCCCCCO        inactive
 5   CCCCCCC(C=O)=Cc1ccccc1        inactive
 6       C=C(CC)CCCC(C)(C)O        inactive
 7  CC(=O)OCc1ccc2c(c1)OCO2        inactive
 8               CCCCCCCCCO        inactive
 9              CSSCc1ccco1          active
10               COc1ccccc1        inactive
11        CC(C)=CCCC(C)=CCO        inactive
12        CNc1ccccc1C(=O)OC        inactive
13                 C1CCOCC1        inactive

###

molecular target: UniProt Q8VGC6; settings: stereoisomer not certain
Sequence (Q8VGC6 as listed by the source): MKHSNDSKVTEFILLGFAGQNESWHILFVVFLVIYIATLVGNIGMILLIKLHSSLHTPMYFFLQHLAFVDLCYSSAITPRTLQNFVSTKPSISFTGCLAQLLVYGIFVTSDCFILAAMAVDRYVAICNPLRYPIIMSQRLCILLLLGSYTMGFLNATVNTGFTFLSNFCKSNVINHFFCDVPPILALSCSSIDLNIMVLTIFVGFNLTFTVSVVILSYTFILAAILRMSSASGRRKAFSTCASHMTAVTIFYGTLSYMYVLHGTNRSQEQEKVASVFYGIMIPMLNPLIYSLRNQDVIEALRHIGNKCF
Labels: 1 (active), -1 (inactive)

> print(dat)
                                  compound  discrete.label
 1             CC(C)=CCCC(C)=CCOC(=O)C(C)C              -1
 2                     COc1cc(C(=O)O)ccc1O              -1
 3                    CC1(C)CC(=O)CC(=O)C1              -1
 4                              CCCC(=O)OC              -1
 5               C=CC(=C)CCC=C(C)CCC=C(C)C              -1
 6                                CCCCCCCO               1
 7                        CCCCCCC(=O)OCCCC              -1
 8      CCCC(C)C(=O)OCC (stereo not drawn)              -1
 9                           CCC=CCCC=CC=O              -1
10                        CCC(=O)OC(C)(C)C              -1
11                        CC(=O)OCc1ccccc1               1
12                                   CCC=O              -1
13                                  CCCC=O              -1
14                             CCCC(=O)OCC              -1
15  CC(C)=C1CCC(C)CC1=O (stereo not drawn)              -1
16                       CC(=O)OCCc1ccccc1              -1
17                          CCC(=O)C(=O)CC              -1
18                              CCCCC(=O)O              -1

###

target: OR2M3 (Homo sapiens); conditions: stereoisomer not certain
Labels: 1 (active), 0 (inactive)

> print(dat)
                                 molecule  discrete.label
 1                           CCCCC(=O)OCC               0
 2      CCCC(S)C(C)CO (centres undefined)               1
 3                       COc1nccnc1CC(C)C               0
 4                          Cc1cccc(C)c1O               0
 5                           CCOC(=O)CCSC               0
 6                            CCCCCC=CC=O               0
 7                                CSCCC=O               0
 8                               CCCCCC=O               0
 9                                  CSSSC               0
10                         Cc1occc(=O)c1O               0
11                           CCCCCCC=CC=O               0
12    CC1=NC(C)C(C)S1 (centres undefined)               0
13                       O=c1ccc2ccccc2o1               0
14  CC1=C(O)C(=O)OC1C (centres undefined)               0
15                             CCC=CCCC=O               0
16                         CCCCCCC=CCCC=O               0
17                            SCCc1ccccc1               0
18                     CC(C)CCCCCCCCCCC=O               0
19                              Cc1occc1S               0

###

Target: OR2W1 (Homo sapiens) (UniProt Q9Y3N9)
Sequence (whole entry): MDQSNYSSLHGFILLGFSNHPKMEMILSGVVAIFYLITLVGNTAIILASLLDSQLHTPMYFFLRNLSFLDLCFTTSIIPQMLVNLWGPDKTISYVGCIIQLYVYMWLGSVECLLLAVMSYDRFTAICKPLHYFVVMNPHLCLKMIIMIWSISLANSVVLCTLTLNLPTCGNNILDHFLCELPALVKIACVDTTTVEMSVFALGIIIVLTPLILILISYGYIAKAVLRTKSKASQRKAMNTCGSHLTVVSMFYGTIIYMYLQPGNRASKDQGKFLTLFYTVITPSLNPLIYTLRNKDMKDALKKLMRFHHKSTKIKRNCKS
Conditions: stereoisomer not certain
result-type: odorant receptor agonist call

> print(dat)
                                  compound    result
 1     CCCC(S)CCOC(C)=O (stereo not drawn)    active
 2                                   CSCSC  inactive
 3                          C=Cc1ccc(O)cc1    active
 4    CCC(C)CCC(=O)[O-] (stereo not drawn)    active
 5  CCCCCCCC1CCCC(=O)O1 (stereo not drawn)  inactive
 6                            CCCCCCC(C)=O    active
 7    CC1=C(O)C(=O)OC1C (stereo not drawn)  inactive
 8                               CCC=CCC=O  inactive
 9                               CCOC(C)=O  inactive
10                        O=C(O)CCc1ccccc1  inactive
11                     CC(=O)OCC=Cc1ccccc1    active
12                            Cc1ccc(O)cc1  inactive
13                           OCC=Cc1ccccc1    active
14                                 CCCSSSC    active
15                             CCCCCC=CC=O    active
16   CC1=CCC(C(C)C)C=C1 (stereo not drawn)    active
17                          CC(=O)C1=NCCS1  inactive
18                          CCCCCCCCC(=O)O    active
